All values here come from ChEMBL document CHEMBL3885861.

A collection of compounds and their measured GLC
Species: Rattus norvegicus
ASSAY COMMENT: Open TG-GATES - Regimen: Single
Assay type: toxicity, organism-based, Sprague-Dawley
Parameters: regimen Single, gender Male, age 6 weeks
EXPERIMENTAL CONDITIONS: in vivo, po, 0 mg/kg, 3 h, tissue Plasma, route gavage, dose level Control

> print(dat)
                     compound  reported.value
1  CCN(CC)C(=S)SSC(=S)N(CC)CC     188.6 mg/dL
2               CCO [ALCOHOL]       192 mg/dL

Tell me the measured GLC of CC(S)C(=O)NCC(=O)O (stereo not drawn) [TIOPRONIN] , please.
190.8 mg/dL

Tell me the measured GLC of O=c1ccc2ccccc2o1 [COUMARIN] , please.
189.4 mg/dL

Tell me the measured GLC of `Nc1ccc(Cc2ccc(N)cc2)cc1` , please.
158.2 mg/dL

Tell me the measured GLC of CCCCNC(=O)NS(=O)(=O)c1ccc(C)cc1 [TOLBUTAMIDE] , please.
175 mg/dL

Tell me the measured GLC of CN(C)CCCN1c2ccccc2Sc2ccc(Cl)cc21 [CHLORPROMAZINE] , please.
190 mg/dL

Tell me the measured GLC of NS(=O)(=O)c1cc(C(=O)O)c(NCc2ccco2)cc1Cl [FUROSEMIDE] , please.
172.8 mg/dL
